Tested on: human TLR8
TEST_PROTOCOL: TLR8 cellular NFκB-luc reporter assay in transiently transfected HEK293 cells
Format: cell-based
CONDITION_SET: Table II A, lowest effective concentration, 6 hours incubation
Classify: Satisfied when Human TLR8 (LEC, μM) is strictly less than 0.8 µM; Not satisfied when Human TLR8 (LEC, μM) is not.

- STRUCTURE_SMILES_STRING: "CCCCNc1nc(N)nc2c1CCN(C(C)=O)C2"
  CLASS_LABEL: "Satisfied"
- STRUCTURE_SMILES_STRING: "CCCCNc1nc(N)nc2c1CCN(C(=O)CC#N)C2"
  CLASS_LABEL: "Not satisfied"
- STRUCTURE_SMILES_STRING: "CCCCNc1nc(N)nc2c1CCN(C(=O)c1nccn1C)C2"
  CLASS_LABEL: "Not satisfied"
- STRUCTURE_SMILES_STRING: "CCCCNc1nc(N)nc2c1CCN(C(=O)c1cc(C)n(C)n1)C2"
  CLASS_LABEL: "Satisfied"
- STRUCTURE_SMILES_STRING: "CCCCNc1nc(N)nc2c1CCN(C(=O)C(C)C)C2"
  CLASS_LABEL: "Not satisfied"

Human TLR8 (LEC, μM) under 0.8 µM? Item: "CCCCNc1nc(N)nc2c1CCN(C(=O)Cc1cccs1)C2"
Satisfied

Quick check: Human TLR8 (LEC, μM) of "CCCCNc1nc(N)nc2c1CCN(C(=O)c1cccs1)C2" under 0.8 µM?
Satisfied

Given the entry "CCCCNc1nc(N)nc2c1CCN(C(=O)c1cccn1C)C2" , would its reported Human TLR8 (LEC, μM) be below 0.8 µM?
Satisfied

hey, is Human TLR8 (LEC, μM) for "CCCCNc1nc(N)nc2c1CCN(C(=O)c1ccccn1)C2" lower than 0.8 µM or not?
Not satisfied

Regarding "CCCCNc1nc(N)nc2c1CCN(C(=O)C1CCC1)C2" , kindly confirm whether its Human TLR8 (LEC, μM) is beneath 0.8 µM.
Satisfied

Please state whether Human TLR8 (LEC, μM) is below 0.8 µM for "CCCCNc1nc(N)nc2c1CCN(C(=O)c1ccsc1)C2"
Not satisfied

Could you please tell me whether Human TLR8 (LEC, μM) recorded for "CCCCNc1nc(N)nc2c1CCN(C(=O)CC(F)(F)F)C2" is less than 0.8 µM?
Not satisfied

Record "CCCCNc1nc(N)nc2c1CCN(C(=O)c1ccccc1)C2" : is its Human TLR8 (LEC, μM) strictly below 0.8 µM?
Satisfied

Confirm or reject: Human TLR8 (LEC, μM) of "CCCCNc1nc(N)nc2c1CCN(C(=O)c1sccc1Cl)C2" lies strictly below 0.8 µM
Satisfied

Lab note: Human TLR8 (LEC, μM) threshold 0.8 µM. Does this compound come in strictly under it? "CCCCNc1nc(N)nc2c1CCN(C(=O)c1cnccn1)C2"
Not satisfied

Just wondering, is Human TLR8 (LEC, μM) of "CCCCNc1nc(N)nc2c1CCN(C(=O)C1CC1)C2" below 0.8 µM?
Satisfied

Human TLR8 (LEC, μM) under 0.8 µM? Item: "CCCCNc1nc(N)nc2c1CCN(C(=O)c1cscn1)C2"
Not satisfied

Consider "CCCCNc1nc(N)nc2c1CCN(C(=O)c1csc(N)n1)C2" . Does its Human TLR8 (LEC, μM) lie strictly below 0.8 µM?
Not satisfied

Human TLR8 (LEC, μM) strictly < 0.8 µM for this compound? "CCCCNc1nc(N)nc2c1CCN(C(=O)COC)C2"
Not satisfied

====

Answer each item with its documented Human TLR7 (LEC, μM).
System: human TLR7
TEST_PROTOCOL: TLR7 cellular NFκB-luc reporter assay in transiently transfected HEK293 cells
Format: cell-based
CONDITION_SET: Table IIC, lowest effective concentration, 6 hours incubation
Numbers only, in µM.

Below: 5 molecules and their reported Human TLR7 (LEC, μM).
- STRUCTURE_SMILES_STRING: "CCCCNc1nc(N)nc2c1CN(C(=O)c1cocn1)CC2"
  Human TLR7 (LEC, μM), µM: 0.7
- STRUCTURE_SMILES_STRING: "CCCC[C@@H](CCO)Nc1nc(N)nc2c1CCN(C(=O)c1cccn1C)C2"
  Human TLR7 (LEC, μM), µM: 1.7
- STRUCTURE_SMILES_STRING: "CCCCNc1nc(N)nc2c1CCN(C(=O)CC)C2"
  Human TLR7 (LEC, μM), µM: 5.0
- STRUCTURE_SMILES_STRING: "CCC[C@@H](CCO)Nc1nc(N)nc2c1CCN(C(=O)c1ccncc1)C2"
  Human TLR7 (LEC, μM), µM: 12.1
- STRUCTURE_SMILES_STRING: "CCC[C@@H](CCO)Nc1nc(N)nc2c1CCN(C(=O)c1cccn1C)C2"
  Human TLR7 (LEC, μM), µM: 2.7

Provide reported Human TLR7 (LEC, μM) for each item, in the same order as listed.
1. CCCCNc1nc(N)nc2c1CCN(C(=O)[C@H](C)N)C2
2. CCC[C@@H](CCO)Nc1nc(N)nc2c1CN(C(=O)c1cscn1)CC2

1: 16.8; 2: 2.2

====

System: PBMC-IFNa
TEST_PROTOCOL: PBMC-IFNa
Assay type: cell-based
CONDITION_SET: Table IIC; lowest effective concentration; read-out: PBMC-IFNa (LEC)
Given measured minimal effective concentration, output true (1) if it is greater than or equal to 0.3 µM and false (0) if not.

Is minimal effective concentration at least 0.3 µM? Consider CCCCNc1nc(N)nc2c1CN(C(=O)C1CCOCC1)CC2 [Compound 31]
true (1)

Answer whether minimal effective concentration of CCCCNc1nc(N)nc2c1CCN(C(=O)[C@H](C)N)C2 [Compound 26] is greater than or equal to 0.3 µM.
true (1)

Is minimal effective concentration for CCCCNc1nc(N)nc2c1CN(C(=O)c1cc(C)on1)CC2 [Compound 34] at or above 0.3 µM?
false (0)

Hello, I need to know if CCCCNc1nc(N)nc2c1CCN(C(=O)c1ccncc1)C2 [Compound 28] has measured minimal effective concentration not below 0.3 µM. Thanks!
true (1)

Answer whether minimal effective concentration of CCCC[C@@H](CCO)Nc1nc(N)nc2c1CN(C(=O)c1cscn1)CC2 [Compound 46] is greater than or equal to 0.3 µM.
false (0)

hey, is minimal effective concentration for this one >= 0.3 µM? CCCCNc1nc(N)nc2c1CN(C(=O)c1ccsc1)CC2 [Compound 33]
false (0)

====

System: human TLR7
TEST_PROTOCOL: TLR7 cellular NFκB-luc reporter assay in transiently transfected HEK293 cells
Type: cell-based
CONDITION_SET: Table IIC, lowest effective concentration, 6 hours incubation
Values of Human TLR7 (LEC, μM) strictly less than 0.5 µM map to class 1, and values of at least 0.5 µM map to class 0.

# count of solved cases: 6
- STRUCTURE_SMILES_STRING: "CCCC[C@@H](CCO)Nc1nc(N)nc2c1CN(C(=O)c1csc(C)n1)CC2"
  CLASS_LABEL: "class 0"
- STRUCTURE_SMILES_STRING: "CCCCNc1nc(N)nc2c1CN(C(=O)c1ccsc1)CC2"
  CLASS_LABEL: "class 1"
- STRUCTURE_SMILES_STRING: "CCCCNc1nc(N)nc2c1CCN(C(=O)c1ccncc1)C2"
  CLASS_LABEL: "class 0"
- STRUCTURE_SMILES_STRING: "CCCC[C@@H](CCO)Nc1nc(N)nc2c1CN(C(=O)c1ccco1)CC2"
  CLASS_LABEL: "class 1"
- STRUCTURE_SMILES_STRING: "CCC[C@@H](CCO)Nc1nc(N)nc2c1CN(C(=O)c1csc(C)n1)CC2"
  CLASS_LABEL: "class 0"
- STRUCTURE_SMILES_STRING: "CCC[C@@H](CCO)Nc1nc(N)nc2c1CN(C(=O)c1ccccc1)CC2"
  CLASS_LABEL: "class 0"

Is 0.5 µM strictly greater than the compound's reported Human TLR7 (LEC, μM)? compound: "CCCCNc1nc(N)nc2c1CCN(C(=O)c1nccc3ccccc13)C2"
class 0

Hi there! Is Human TLR7 (LEC, μM) for "CCCCNc1nc(N)nc2c1CCN(C(=O)c1cc(C)on1)C2" below 0.5 µM, do you know?
class 0

Does this compound meet the criterion Human TLR7 (LEC, μM) < 0.5 µM? "CCCCNc1nc(N)nc2c1CCN(C(=O)[C@@H](N)C(C)C)C2"
class 0

Dear reviewer, please state whether "CCCCNc1nc(N)nc2c1CN(C(=O)CC#N)CC2" has Human TLR7 (LEC, μM) strictly beneath 0.5 µM.
class 0

Quick check: Human TLR7 (LEC, μM) of "CCCCNc1nc(N)nc2c1CCN(C(=O)c1cocn1)C2" under 0.5 µM?
class 0

Determine whether this compound shows Human TLR7 (LEC, μM) lower than 0.5 µM (ties excluded): "CCCCNc1nc(N)nc2c1CN(C(=O)c1cc(C)on1)CC2"
class 0

# TODO verify Human TLR7 (LEC, μM) < 0.5 µM strictly for this compound: "CCCC[C@@H](CCO)Nc1nc(N)nc2c1CN(C(=O)c1cscn1)CC2"
class 0

Answer whether the compound "CCCC[C@@H](CCO)Nc1nc(N)nc2c1CN(C(=O)c1ccccc1)CC2" has Human TLR7 (LEC, μM) strictly less than 0.5 µM
class 0

Find out if reported Human TLR7 (LEC, μM) for "CCC[C@@H](CCO)Nc1nc(N)nc2c1CN(C(=O)c1cccs1)CC2" is less than 0.5 µM
class 1
